The origin of these recorded values is paper PMC3705751.

test: in vitro; details: dog
metric-name: CC50 (µM)

{"compound": "O=C(O)[C@H]1O[C@@H](Oc2cc3oc(-c4ccccc4)cc(=O)c3c(O)c2O)[C@H](O)[C@@H](O)[C@@H]1O [Baicalin]", "metric-name": "CC50", "unit-text": "µM", "quantitative-readout": 0.015}
{"compound": "O=c1cc(-c2ccccc2)oc2cc(O)cc(O)c12 [Chrysin]", "metric-name": "CC50", "unit-text": "µM", "quantitative-readout": 267}

====

test system: seasonal 2007 H1N1 influenza A virus; test: microbe, parasite or virus in culture; assay type: cell-based; details: Influenza A virus, MDCK, 72 h, read-out: Plaque inhibition IC50 values, Seasonal 2007 H1N1
pIC50: −log10 of the molar value.
metric-name: pIC50

{"compound-smiles": "O=c1cc(-c2ccccc2)oc2cc(O)cc(O)c12", "metric-name": "pIC50", "result": "< 3.70"}
{"compound-smiles": "O=C(O)[C@H]1O[C@@H](Oc2cc3oc(-c4ccccc4)cc(=O)c3c(O)c2O)[C@H](O)[C@@H](O)[C@@H]1O", "metric-name": "pIC50", "result": "< 8.00"}
{"compound-smiles": "O=c1cc(-c2ccccc2)oc2cc(O)c(O)c(O)c12", "metric-name": "pIC50", "result": 7.74}
